assayed-system: TYK2 (Homo sapiens)
Sequence (P29597 whole entry): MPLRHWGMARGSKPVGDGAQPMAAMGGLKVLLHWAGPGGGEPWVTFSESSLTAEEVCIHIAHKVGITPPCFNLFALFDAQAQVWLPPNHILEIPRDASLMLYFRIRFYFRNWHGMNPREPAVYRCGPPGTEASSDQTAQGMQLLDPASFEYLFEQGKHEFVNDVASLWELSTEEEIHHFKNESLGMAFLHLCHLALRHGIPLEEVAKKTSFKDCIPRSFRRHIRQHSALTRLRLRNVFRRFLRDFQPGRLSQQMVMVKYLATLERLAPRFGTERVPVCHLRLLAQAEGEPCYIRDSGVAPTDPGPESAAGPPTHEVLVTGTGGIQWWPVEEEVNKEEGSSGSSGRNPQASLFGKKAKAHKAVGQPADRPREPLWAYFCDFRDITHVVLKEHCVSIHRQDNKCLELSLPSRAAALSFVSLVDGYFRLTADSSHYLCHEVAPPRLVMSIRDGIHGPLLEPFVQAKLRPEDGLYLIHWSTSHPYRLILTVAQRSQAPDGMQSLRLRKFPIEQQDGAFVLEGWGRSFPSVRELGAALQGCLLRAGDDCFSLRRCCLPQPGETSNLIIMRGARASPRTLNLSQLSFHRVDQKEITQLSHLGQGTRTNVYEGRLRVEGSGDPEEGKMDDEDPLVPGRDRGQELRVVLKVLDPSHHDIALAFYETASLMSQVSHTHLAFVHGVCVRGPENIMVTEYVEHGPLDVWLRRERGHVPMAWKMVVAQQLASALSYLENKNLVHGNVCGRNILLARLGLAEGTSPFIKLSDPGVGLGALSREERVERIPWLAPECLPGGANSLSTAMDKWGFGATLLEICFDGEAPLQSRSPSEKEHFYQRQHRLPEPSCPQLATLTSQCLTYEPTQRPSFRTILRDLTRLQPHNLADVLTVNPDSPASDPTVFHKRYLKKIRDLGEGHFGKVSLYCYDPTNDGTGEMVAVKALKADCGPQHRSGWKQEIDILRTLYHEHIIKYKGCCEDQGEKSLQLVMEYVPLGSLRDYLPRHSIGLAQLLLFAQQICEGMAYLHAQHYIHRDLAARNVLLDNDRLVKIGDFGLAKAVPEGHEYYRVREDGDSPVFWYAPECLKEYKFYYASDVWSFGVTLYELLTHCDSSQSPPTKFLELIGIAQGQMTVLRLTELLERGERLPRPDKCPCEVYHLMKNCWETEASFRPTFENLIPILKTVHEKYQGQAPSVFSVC
procedure-details: TYK2 degradation MSD assay in human PBMC cells
Format: cell-based
Design: endogenous in cells; host or cells: human PBMC
study-conditions: 4 to 24 hours incubation, read-out: TYK2 MSD DC50 rating in human PBMC
Each entry below carries its reported DC50.

Previously resolved entries follow.
- molecule: "CNc1cc(N2CCc3c(-c4cc(N5CCN(c6cccc7c6n(C)c(=O)n7C6CCC(=O)NC6=O)CC5)ccn4)cccc32)nn2c(C(=O)N[C@@H]3C[C@@H]3F)cnc12 (stereo partly drawn)"
  DC50: "> 100 nM"
- molecule: "CNc1cc(-c2ccc(C(=O)NCCCCc3cccc4c3n(C)c(=O)n4C3CCC(=O)NC3=O)cc2)nn2c(C(=O)N[C@@H]3C[C@@H]3F)cnc12 (stereo partly drawn)"
  DC50: "> 100 nM"

Proceeding to the next molecule to report its DC50.
## Task Form: Entry = CNc1cc(-c2ccc(N3CCC(CN4CCN(c5ccc(-c6ccc7c(c6)n(C)c(=O)n7C6CCC(=O)NC6=O)cc5)CC4)CC3)cc2)nn2c(C(=O)N[C@@H]3C[C@@H]3F)cnc12 (mixture of isomers) | System = TYK2 (Homo sapiens) | DC50 = ____
## Result > 100 nM

meta.source: patent US20250051338A1
